Experiment: amyloid nucleation score (Sup35N fusion, yeast selection) (log enrichment); library NNK2; higher = more nucleation; inactive = no reads after selection;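 also: zero at mode of non-aggregating sequences after 7 days selection at 30°C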
Categories are assigned from the measured amyloid nucleation score using these intervals: lower range = under -0.2, middle range = from -0.2 up to 0.2, upper range = 0.2 and over

substance: FTMYPITG
assigned label: upper range

substance: LSSKCYVA
assigned label: lower range

substance: IKWSLHRYYFVMFICSFIAS
assigned label: lower range

substance: APVLSDN
assigned label: middle range

substance: TVSLTWEKYNEQIHA
assigned label: upper range

substance: RRFEPKVRKKHQGLFLWYSV
assigned label: middle range

substance: TSLVLCYLTIELSVLISSGN
assigned label: upper range

substance: DLGGQMNYLVLMGNDMWNV
assigned label: lower range

substance: NIPAYTSMTFVLWTIL
assigned label: middle range

substance: KTLKNEFVDMNQMIYNY
assigned label: lower range

substance: ARTWGAAIWFMGN
assigned label: upper range

substance: TPSDLVDINMDHAFCELCRR
assigned label: upper range

substance: SGNAGLFNRARGSVVTAVLV
assigned label: upper range

substance: FLDAFFFGWDVVVRVYSSAP
assigned label: middle range

substance: IYNVSQLRTGTDMFNL
assigned label: upper range

substance: YHCCFRSKAGFQESQDITIR
assigned label: middle range

substance: SELPDIRWHTGWMFLSCAWN
assigned label: lower range

substance: QFRPLDCCLLNFDDSRIYCL
assigned label: upper range

substance: TVAKSLVYLSVCQVAA
assigned label: middle range

substance: REHSYLSIFLWMCAFVTNVE
assigned label: lower range

substance: WFIILRLIYVYGTNCAVYMV
assigned label: middle range

substance: RVSMFKDLKYNGSYSWNSHG
assigned label: lower range

substance: RSSGLIGLGWKQI
assigned label: lower range

substance: RPNDMHTT
assigned label: middle range

substance: FCSSFEEYICLNYVIRSEWM
assigned label: upper range

----------
Test: amyloid nucleation score (Sup35N fusion, yeast selection) (log enrichment); library NNK1; higher = more nucleation; inactive = no reads after selection
Please use t whenever amyloid nucleation score is not below 0.1, and f whenever it is.

substance: LLYVRVHCLTAGFADSEASI
assigned label: f

substance: WVCSNNMHMSIANVGLDCNL
assigned label: t

substance: HWPGLVEYGLGWLRGRLVMG
assigned label: t

substance: SGSGRCTNLSCVGGFGKWLM
assigned label: t

substance: ILVVAVI
assigned label: f

substance: AMRLMDILCLIVCPHEYMWP
assigned label: t

substance: WYPYTVSIPLIYVVSCIDEY
assigned label: t

substance: NFKNRPSRLSRSNRSLFSTG
assigned label: f

substance: YGETGVINWRV
assigned label: f

substance: FIRLLGSMV
assigned label: t

substance: VAHSLYLNIYGFQLMS
assigned label: t

substance: CSVTLVVRV
assigned label: t

substance: LVSWSTVDVSQLTAWKKPAG
assigned label: f

substance: FTYRGYSDQLMVSLLSLLSE
assigned label: t

substance: DWRLNLVYKMSA
assigned label: t

substance: STHNTRFGVY
assigned label: t

substance: RSRGCPRIFNGAKC
assigned label: f

substance: DSTLTVKFLMMVRYMVCSVG
assigned label: t

substance: SDFTIINFQYFLASCCTGYV
assigned label: t

substance: WPVYEDKACCHVDAHKGEAT
assigned label: t

substance: DQFLGYMANVAGVVP
assigned label: t

substance: QNFDHTIHRISVVVPGA
assigned label: f

substance: RKSPATVVFSRPSLWLYGRR
assigned label: t

substance: IIRDSFKNRPETAYTHRTWD
assigned label: t

substance: RTCHDWVIEGSMRILTARIM
assigned label: f

substance: DLEPWWACLAKGSSGLISYV
assigned label: t

substance: GNYNSPFFRGSVNWNWCM
assigned label: t

substance: HIRCHVRTGEAARHRQVAQY
assigned label: t

substance: VVYHAFDALLNLCRSSYRGH
assigned label: f

substance: RNYFCIMYRYRCCKV
assigned label: t

substance: PFEYLVRLIYCEDVAYLGTG
assigned label: f

substance: LMLISHEDFLLVFAWFN
assigned label: f

substance: IIFVEWNSGRAC
assigned label: f

substance: TCDFAAWICFYISLWVRVKI
assigned label: f

substance: WMDTLVSIGRGGMLRVSCSG
assigned label: t

substance: LYFITTM
assigned label: t

substance: CLVVTETANI
assigned label: f

substance: RFKRWGKR
assigned label: t

substance: LLGRYNLLYIGMFRATRGGC
assigned label: f

substance: VRLLEHSANPSMGKMNMNVG
assigned label: t

substance: QEGCQTLTSTSLVGGRKESS
assigned label: t

substance: NCHSSFYGNDIGGLSHVMCL
assigned label: t

substance: LWSLDSDSCKVLGDSGCGFF
assigned label: t

substance: VYHSCSDMCFKAFQVNTYQC
assigned label: t

substance: IRTKILLLHKNQKTVVKGLG
assigned label: f

substance: DNRIIWLRGTMS
assigned label: t

substance: YLNERE
assigned label: f

substance: GLVHMPGHLRVLRQLLSA
assigned label: t

substance: TLKHLNATISHT
assigned label: t

substance: NAFCHAYSI
assigned label: f

substance: SLITVSHMPWGCT
assigned label: t

substance: GCGFSWSLCGESPYAVRPVA
assigned label: t

substance: CCFMYAQIDLLNFSMDVLAR
assigned label: t

substance: MRWSIFRSTWFCAYSSLVSS
assigned label: t

substance: SLEVRNRCNVYVAAANLLVM
assigned label: t

substance: CLTLPYYSIYAVGESRMFEW
assigned label: f

substance: IMHQYRRGYDRDLNWNRMFR
assigned label: f

substance: QTGQRFALKDSTSNSIPYLE
assigned label: f

----------
Experiment: amyloid nucleation score (Sup35N fusion, yeast selection) (log enrichment); library NNK2; higher = more nucleation; inactive = no reads after selection

residues: KYYRQSCQDRPILFDVALYY
amyloid nucleation score: inactive
//
residues: PRTISSSRLMWRYVSYLVIV
amyloid nucleation score: inactive
//
residues: LSNLMRISMIFEYAAPLFRF
amyloid nucleation score: inactive

----------
Assay: amyloid nucleation score (Sup35N fusion, yeast selection) (log enrichment); library NNK2; higher = more nucleation; inactive = no reads after selection
# binarize amyloid nucleation score: threshold -0.04 inclusive, high side t, low side f

substance: RYSNKSDDYRGTSYLMYHVM
assigned label: t

substance: CFTKDMLSDNCVSV
assigned label: f

substance: LFMKRER
assigned label: f

substance: SFQPMRQFNFMINLWTVGAA
assigned label: t

substance: VLSNLIFYLSPFCIMHLMR
assigned label: t

substance: LNSGCAVVLCADSRHSNEPD
assigned label: f

substance: YLVFKYTRGMFLVLCTPIWV
assigned label: f

substance: ELTTIG
assigned label: t

substance: RNWWGLSVYNSIYWCVMSRD
assigned label: t

substance: CFIKVAVNWQL
assigned label: t

substance: LYSLWQKRGRRGSYVSPAGS
assigned label: t

substance: RSRDRGRCWFMMSRGMGGVA
assigned label: t

substance: KDKGVCSQLYRDLVWRDEVF
assigned label: t

----------
Experiment: amyloid nucleation score (Sup35N fusion, yeast selection) (log enrichment); library NNK2; higher = more nucleation; inactive = no reads after selection

residues: CEEFMKFFAGYQTHVLVFSR
amyloid nucleation score: inactive

residues: HRRSFGSQMYL
amyloid nucleation score: inactive

residues: EAFNTSCLVFLRNDWYWSGF
amyloid nucleation score: inactive

----------
Assay: amyloid nucleation score (Sup35N fusion, yeast selection) (log enrichment); library NNK2; higher = more nucleation; inactive = no reads after selection
Decide using amyloid nucleation score: a value greater than or equal to 0.4 is t, a smaller one is f.

substance: GQWRKGAYMVC
assigned label: t
//
substance: VMYYEGG
assigned label: f
//
substance: RWSFRLSTAIQGQPWSTPGD
assigned label: t
//
substance: TLFNMLDYSVVWYLFTSIHR
assigned label: f
//
substance: FYRLLWSRNCTEVR
assigned label: f
//
substance: WIILGTSSAVWRTHDYLA
assigned label: t
//
substance: SMDRIQEGLHRQLVFDVSE
assigned label: t
//
substance: IFHVIVWLFEDAFVQVQNYR
assigned label: t
//
substance: LSAKSTCTAYNRAGSARTEY
assigned label: f
//
substance: SYSFRVVDWVYILTYLRKFE
assigned label: t
//
substance: WHSDSQTRRSSLSLLVCQID
assigned label: t
//
substance: ASVNSRSINSSGQFPPCFRK
assigned label: f
//
substance: FTILTP
assigned label: f
//
substance: AYRRYDWYFMLVRLLY
assigned label: t
//
substance: ALAYAWYLVGLLFSKVWRYS
assigned label: f
//
substance: HLFLRFADSSYWIS
assigned label: t
//
substance: SGRIYSGDETMFRWECRYWC
assigned label: t
//
substance: SMRVYHSHLNWFH
assigned label: t
//
substance: EIFFKCGFLLLGCDRPGRVR
assigned label: t
//
substance: STRVWWDSWMFWLNEK
assigned label: f
//
substance: AFMCWSYRS
assigned label: t
//
substance: KVFSNIVMLLSVRLCCLMKI
assigned label: f
//
substance: YGSFIWWLPCNGMGLKCSRS
assigned label: t
//
substance: HFGAFMHCVCTRLKMS
assigned label: f
//
substance: SLRYLHFGVDHLS
assigned label: t
//
substance: IQIFGVTYGSG
assigned label: f
//
substance: YNVDTVYLRGSLLRSYDWCF
assigned label: f
//
substance: RLDYNSSCQIFLFAGFMYLF
assigned label: t
